Tested on: COLO 205 colon
Measurement Notes: NCI tumour cell line growth inhibition, 48 h
Where a SMILES comes first, the peptide text is derived from it. The star is where a group is joined. Boc = CC(C)(C)OC(=O)*; OBn = c1ccc(CO*)cc1
compounds and their reported TGI
Assay Readout: TGI

Compound	Result
Cc1c(-c2ccccc2)c(C#N)c2nnc(C(N)=O)c(N)n12	> 100 µM
COc1cc(C2S/C(=C/c3ccccc3)C(=O)N2c2ccc(Cl)c(Cl)c2)cc(OC)c1OC (stereo unspecified)	> 100 µM
CC(C)OP(=O)(OC(C)C)C(C(C)C)N(C)/C(F)=N/C(F)(F)F (stereo unspecified)	> 100 µM
CCOC(=O)C(/C=N\C(=S)Nc1ccc(OCC)cc1)=C(/O)c1ccccc1	> 100 µM
O=C(O)CSc1ncccc1[N+](=O)[O-]	> 100 µM
CC(=O)O[C@@H]1C2C(=O)OC(=O)C2C2CCC[C@]23O[C@H]13 (stereo partly specified)	> 100 µM
COc1cc(Cn2c(-c3nonc3N)nc3ccccc32)ccc1C	1.39 µM
C[C@]12CC[C@@H]3c4ccc(O)cc4C(O)C[C@H]3[C@@H]1CCC2=O (stereo partly specified)	> 100 µM
CCCCCCN(CCCCCC)CC(O)c1ccc2c3c(cccc13)CC2 (stereo unspecified)	19.8 µM
COc1ccc(C2CC(n3nnnc3-c3ccccc3)=NN2)cc1 (stereo unspecified)	11.7 µM
CC(C)(C)OC[C@H](O)CC#N	> 100 µM
O=c1[nH]c(N/N=C\C(O)C(O)C(O)CO)nc2ccccc12 (stereo unspecified)	> 100 µM
COc1ccc2c(c1)[n+]([O-])c(/C(C)=N/NC(=O)CC#N)c[n+]2[O-]	> 100 µM
CSc1c(C#N)c2n(c3ccccc13)c1ccccc1[n+]2C	38.6 µM
Cc1cc(-c2nnc3n2CCCCC3)c(C)n1-c1ccc(Cl)c(Cl)c1	25.1 µM
CCCCOCn1c(=O)[nH]c(=O)c2cc(Br)ccc21	> 100 µM
CC1(C)Oc2ccc(NC(=O)CCC(N)C(=O)O)cc2O1 (stereo unspecified)	> 100 µM
CC(C)(C)OC(=O)NC(Cc1ccccc1)C(=O)NC(Cc1ccccc1)C(=O)NCC(=O)OCc1ccccc1 (stereo not drawn) (Boc-Phe-Phe-Gly-OBn; configuration not given here)	> 100 µM
O=C1NC2(CN3CCC2CC3)C(=O)N1CN(Cc1ccccc1)c1ccccc1 (stereo unspecified)	> 100 µM
N#C[C@@H]1C(n2ccc(N)nc2=O)O[C@H](CO)[C@H]1O (stereo partly specified)	> 100 µM
COc1cc(S(C)(=O)=O)ccc1Nc1nc2ccc(-c3ccc(NC(=O)[C@H](C)c4ccc(F)cc4)cc3)cn2n1	> 100 µM

###

Test system: MOLT-4 leukemia
Measurement Notes: NCI tumour cell line growth inhibition, 48 h; in the data active = GI50 below about 0.43 µM; inactive = the rest
Classes used: YES (active), NO (inactive)

Compound	Experimental System	Assigned Category
N.N.N.N.N.N.O=N[O-].[Br-].[Co+3].[Co+3].[OH3+].[OH3+]	MOLT-4 leukemia	NO
COC(=O)CCC1=C(C)/C(=C/c2[nH]c(-c3ccc[nH]3)cc2OC)N=C1C	MOLT-4 leukemia	YES
O=C1CCCN1CC#CCN1CCCC1	MOLT-4 leukemia	NO
O=[N+]([O-])c1ccc2c(c1)[O][Sn][O]2	MOLT-4 leukemia	NO
N#C[C@@H]1C(n2ccc(N)nc2=O)O[C@H](CO)[C@H]1O (some centres not stated)	MOLT-4 leukemia	YES
Cc1cc(-c2nnc3n2CCCCC3)c(C)n1-c1ccc(Cl)c(Cl)c1	MOLT-4 leukemia	NO
COc1ccc(CN2c3ccccc3CCc3ccccc32)cc1F	MOLT-4 leukemia	NO

###

Test system: RXF 393 renal
Measurement Notes: NCI tumour cell line growth inhibition, 48 h
Assay Readout: TGI

Molecule	Experimental System	Assay Readout	Result
O=c1ccc(=O)c2c(=O)c3ccccc3c(=O)c1=2	RXF 393 renal	TGI	> 100 µM
CCOc1ccccc1NC(=O)CCc1nc(=S)[nH][nH]1	RXF 393 renal	TGI	> 100 µM
CCO/C(O)=C(/C(=N)N1CCCC1)C(=O)Nc1cccc(C(F)(F)F)c1	RXF 393 renal	TGI	53.6 µM
CSC1=NS(=O)(=O)c2cc(C(=O)NN(C)C(=O)c3cc4c(cc3Cl)SC(SC)=NS4(=O)=O)c(Cl)cc2S1	RXF 393 renal	TGI	> 10 µM
O=c1[nH]c2cc3[nH]c4ncccc4c(=O)c3cc2[nH]1	RXF 393 renal	TGI	> 10 µM
CC(=O)c1cc2ccccc2n(O)c1=N	RXF 393 renal	TGI	> 100 µM
CN(C)CCNc1ncnc2nc(-c3ccc4ccccc4c3)[nH]c12	RXF 393 renal	TGI	> 100 µM
Oc1ccc(CCc2cc(O)cc(O)c2)cc1	RXF 393 renal	TGI	> 100 µM
COC(=O)CCC1=C(C)/C(=C/c2[nH]c(-c3ccc[nH]3)cc2OC)N=C1C	RXF 393 renal	TGI	2.07 µM
Cc1ccc(C(=O)/C(C#N)=C/Nc2c(C)n(C)n(-c3ccccc3)c2=O)cc1	RXF 393 renal	TGI	> 100 µM
CC(C)N(C)C(=O)C12C3C4C1C1C2C3C41C#N (stereo unspecified)	RXF 393 renal	TGI	> 100 µM

###

Tested on: TK-10 renal
Measurement Notes: NCI tumour cell line growth inhibition, 48 h; in the data active = GI50 below about 0.43 µM; inactive = the rest
Possible outcomes: active, inactive

Compound	Assigned Category
COc1cc(S(C)(=O)=O)ccc1Nc1nc2ccc(-c3ccc(NC(=O)[C@H](C)c4ccc(F)cc4)cc3)cn2n1	inactive
CCC(c1cccc(O)c1)C(CC)c1cccc(O)c1 (stereo unspecified)	inactive
Oc1ccccc1-c1nc2c3ccccc3c3ccccc3c2[nH]1	inactive
Cn1cc(CNCC2CCN(c3ncc(C(=O)NO)cn3)CC2)c2ccccc21	active
COc1ccc(Cl)cc1Nc1nc(C(F)(F)F)ccc1C(=O)N/N=C/c1cc(OC)c(OC)c(OC)c1	inactive
CCCCCCN(CCCCCC)CC(O)c1ccc2c3c(cccc13)CC2 (stereo unspecified)	inactive
CN(C)C(=O)O[C@@H]1CN[C@@H](C#Cc2cc3ncnc(Nc4ccc(OCc5cccc(F)c5)c(Cl)c4)c3s2)C1	inactive
CCN(CC)CCCC(C)Nc1c2ccc(C)cc2nc2ccc(OC)cc12 (stereo unspecified)	inactive
COc1cc2nc(-c3ccc(C(F)(F)F)cc3)cc(OCCCN3CCCCC3)c2cc1OC	inactive
FCc1ncc(-c2ccc(C(F)(F)F)cc2)c(NC2CCCCCC2)n1	inactive
C[C-](O)O.O/C(=C\[C-](O)c1ccccc1)c1ccccc1.O/C(=C\[C-](O)c1ccccc1)c1ccccc1.[Nd+3] (stereo unspecified)	inactive

###

System: OVCAR-5 ovarian
Measurement Notes: NCI tumour cell line growth inhibition, 48 h

Compound	TGI
FCc1ncc(-c2ccc(C(F)(F)F)cc2)c(NC2CCCCCC2)n1	> 10 µM
Cc1ccc(SC(=O)N2C(=S)NC(=NC3CCCCC3)C23CCCCC3)cc1	> 100 µM
CCOc1c(Cl)cc(CNC(C)C(O)c2ccccc2)cc1OC (stereo not given)	96.4 µM
COc1cc(S(=O)(=O)Nc2ccc(C3=NNC(c4ccccc4)C3)cc2)ccc1F (stereo not given)	> 100 µM
c1nnc(NCNc2nncs2)s1	> 100 µM
CN(Cc1cnc2nc(N)nc(N)c2n1)c1ccc(C(=O)NC(CCC(=O)NC(P(=O)(O)O)P(=O)(O)O)C(=O)O)cc1 (stereo not given)	> 100 µM
Nc1ccc2[nH]c(C(=O)N3CC(CCl)c4c3cc(N)c3ccccc43)cc2c1 (stereo not given)	> 100 µM
CC(=O)c1cc2ccccc2n(O)c1=N	> 100 µM
C[C@]12CC[C@H](O)CC1=CC[C@@H]1[C@@H]2CC[C@]2(C)/C(=N/OCCN3CCCC3)CC[C@@H]12	96.6 µM
CC(=O)N1CCN(C23OC4(N5CCN(C(C)=O)CC5)C5C6CC(C7C6C4C72)C53)CC1 (stereo not given)	> 100 µM

###

Tested on: SK-OV-3 ovarian
Measurement Notes: NCI tumour cell line growth inhibition, 48 h; in the data active = GI50 below about 0.43 µM; inactive = the rest
Outcome codes: active, inactive

Item Smiles	Assigned Category
COc1ccc(-c2cn[nH]c2-c2cc(OC)c3c(c2)OCCO3)cc1	active
COc1ccc(CN2c3ccccc3CCc3ccccc32)cc1F	inactive
CN(C)C(=O)O[C@@H]1CN[C@@H](C#Cc2cc3ncnc(Nc4ccc(OCc5cccc(F)c5)c(Cl)c4)c3s2)C1	active
Cn1cc(CNCC2CCN(c3ncc(C(=O)NO)cn3)CC2)c2ccccc21	active
CC(C)(C)NC(=O)[C@H]1C[C@H]2CCCC[C@H]2CN1C[C@@H](O)[C@H](Cc1ccccc1)NC(=O)[C@H](CC(N)=O)NC(=O)c1ccc2ccccc2n1	inactive

###

Collected TGI values appear next to each entry.
Tested on: UACC-62 melanoma
Measurement Notes: NCI tumour cell line growth inhibition, 48 h

Compound	Experimental System	TGI
O=C1/C(=C2\Sc3c(ccc(Cl)c3Cl)C2=O)Sc2c1ccc(Cl)c2Cl	UACC-62 melanoma	> 100 µM
O=[N+]([O-])c1ccc2c(c1)[O][Sn][O]2	UACC-62 melanoma	> 150 µg/mL
CCc1c(C)c(C#N)c(=S)n(C2OC(CO)C(O)C(O)C2O)c1C (stereo unspecified)	UACC-62 melanoma	> 100 µM
O=C1CC(=O)OC(c2ccc([N+](=O)[O-])cc2)O1	UACC-62 melanoma	5.54 µM
COc1ccc(Cn2c(Cl)c(/C=C3/C(=O)Nc4ccccc43)c3cc(OC)c(C)cc32)cc1	UACC-62 melanoma	18.7 µM
COc1cc(S(=O)(=O)Nc2ccc(C3=NNC(c4ccccc4)C3)cc2)ccc1F (stereo unspecified)	UACC-62 melanoma	45.2 µM
O=C1C(Br)=C(c2ccccc2)S(=O)c2ccccc21 (stereo unspecified)	UACC-62 melanoma	26.6 µM
CC(=O)O[C@@H]1C2C(=O)OC(=O)C2C2CCC[C@]23O[C@H]13 (stereo partly specified)	UACC-62 melanoma	> 100 µM
CCOC(=O)C(CS)NC(=O)CCCCCCCC(=O)NC(CS)C(=O)OCC (stereo unspecified)	UACC-62 melanoma	> 100 µM
O=C1c2ccccc2-n2c1nc1ccccc1c2=O	UACC-62 melanoma	14.5 µM
NNc1nncn1N	UACC-62 melanoma	> 100 µM

These data points were gathered from PubChem BioAssay (NCI).
